Molecular target: human liver cytosolic AOX1 (Homo sapiens)
Sequence (Q06278 1-1338): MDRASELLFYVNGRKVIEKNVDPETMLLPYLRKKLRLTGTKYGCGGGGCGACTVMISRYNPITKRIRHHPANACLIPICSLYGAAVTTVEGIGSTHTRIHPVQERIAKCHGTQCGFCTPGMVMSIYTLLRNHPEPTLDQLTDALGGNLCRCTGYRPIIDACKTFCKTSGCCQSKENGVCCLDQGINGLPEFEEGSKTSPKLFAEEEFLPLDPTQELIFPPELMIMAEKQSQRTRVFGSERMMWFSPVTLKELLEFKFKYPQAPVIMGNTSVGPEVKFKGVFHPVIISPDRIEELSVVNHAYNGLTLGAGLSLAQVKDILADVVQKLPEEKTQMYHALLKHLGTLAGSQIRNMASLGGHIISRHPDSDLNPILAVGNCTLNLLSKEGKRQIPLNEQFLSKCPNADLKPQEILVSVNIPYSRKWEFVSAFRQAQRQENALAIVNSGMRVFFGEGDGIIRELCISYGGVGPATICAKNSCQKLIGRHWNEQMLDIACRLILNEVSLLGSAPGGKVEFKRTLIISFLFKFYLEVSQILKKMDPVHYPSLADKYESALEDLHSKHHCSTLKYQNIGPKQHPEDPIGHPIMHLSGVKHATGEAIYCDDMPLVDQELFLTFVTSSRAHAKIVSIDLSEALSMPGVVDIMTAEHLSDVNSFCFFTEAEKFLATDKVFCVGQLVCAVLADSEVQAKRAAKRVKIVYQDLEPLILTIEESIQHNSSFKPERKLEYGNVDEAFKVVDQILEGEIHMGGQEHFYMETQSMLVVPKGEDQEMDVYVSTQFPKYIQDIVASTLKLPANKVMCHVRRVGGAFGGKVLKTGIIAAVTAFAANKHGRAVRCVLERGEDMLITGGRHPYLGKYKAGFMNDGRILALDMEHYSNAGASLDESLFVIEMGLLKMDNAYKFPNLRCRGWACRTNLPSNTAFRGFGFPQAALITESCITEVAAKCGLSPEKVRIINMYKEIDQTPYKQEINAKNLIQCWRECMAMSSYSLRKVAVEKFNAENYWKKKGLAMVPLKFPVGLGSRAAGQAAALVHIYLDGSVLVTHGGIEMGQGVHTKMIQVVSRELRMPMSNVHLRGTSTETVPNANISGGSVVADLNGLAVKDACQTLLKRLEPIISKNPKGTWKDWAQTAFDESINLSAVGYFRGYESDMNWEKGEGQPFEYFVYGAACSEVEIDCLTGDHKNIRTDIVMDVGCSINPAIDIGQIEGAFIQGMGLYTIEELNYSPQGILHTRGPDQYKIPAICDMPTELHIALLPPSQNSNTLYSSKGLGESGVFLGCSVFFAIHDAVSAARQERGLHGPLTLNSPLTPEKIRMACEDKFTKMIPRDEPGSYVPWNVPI
Experiment: Enzyme inactivation of human liver cytosolic AOX1-mediated carbazeran 4-oxidation
Details: half-maximal inactivation concentration; human liver cytosol, carbazeran 4-oxidation
Assign pKi to each entry below.
Would you please state pKi, meaning minus log10 of the concentration in mol/L, as a bare number?

Form entry - test system: human liver cytosolic AOX1 (Homo sapiens); read-out: pKi; molecule: C#Cc1cccc(Nc2nc(C)nc3cc(OCCOC)c(OCCOC)cc23)c1 5.40

Cool, now C#Cc1cc(Nc2ncnc3cc(OCCOC)c(OCCOC)cc23)ccc1C 5.99

Query C#Cc1cccc(Nc2ncnc3cc(OCCO)c(OCCO)cc23)c1 next 5.70

And C=Cc1cccc(Nc2ncnc3cc(OCCOC)c(OCCOC)cc23)c1 ? 4.51

Another molecule to check: C#Cc1cccc(Nc2nc(=O)[nH]c3cc(OCCOC)c(OCCOC)cc23)c1 [2-Hydroxyerlotinib, 2-hydroxyerlotinib] 4.62
